Values compiled from patent US10696642B2.

# STUDY_SYSTEM: TEAD2 (Homo sapiens, UniProt Q15562)
# Construct: The cDNA encoding human TEAD2 (residues 217-447, TEAD2^217-447) was cloned into a pET29 vector; made in house; host or cells: E. coli BL21(DE3)-T1R
# Sequence (Q15562 217-447): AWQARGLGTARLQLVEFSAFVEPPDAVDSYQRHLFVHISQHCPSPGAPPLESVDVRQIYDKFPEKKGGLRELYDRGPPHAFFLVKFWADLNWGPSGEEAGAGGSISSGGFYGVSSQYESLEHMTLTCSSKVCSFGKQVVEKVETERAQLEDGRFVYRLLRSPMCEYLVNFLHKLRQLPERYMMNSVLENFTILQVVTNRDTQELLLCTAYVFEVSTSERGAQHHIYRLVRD
# MEASUREMENT_DESCRIPTION: In vitro palmitoylation assay to measure potency of TEAD palmitoylation inhibitors (Example 11)
# Type: biochemical
# CONDITION_SUMMARY: compound at 5 μM, 3 μM alkyne palmitoyl-CoA, normalized to DMSO control
QUANTITY_KIND: inhibition at 5 µM (%)

Below are worked cases with known answers.
Cn1cnnc1SCC(=O)Nc1ccc(C23CC4CC(CC(C4)C2)C3)cc1Br    12
Cc1cc(C)cc(-c2ccc(NC(=O)CSc3nnc[nH]3)cc2)c1    100
CC(C)(C)c1ccc(NC(=O)CSc2nnc[nH]2)cc1    30
CCOc1ccc2nc(SCC(=O)Nc3ccc(C45CC6CC(CC(C6)C4)C5)cc3)sc2c1    40
Cc1ccc(-c2nnc(SCCC(=O)Nc3cccc(C45CC6CC(CC(C6)C4)C5)c3)o2)cc1    80
CCn1c(SCC(=O)Nc2ccc(C34CC5CC(CC(C5)C3)C4)cc2)nnc1-c1ccccc1O    10
O=C(CSc1nnc[nH]1)Nc1ccc(-c2cccc(-c3ccccc3)c2)cc1    70

I: Cn1cnnc1SCC(=O)Nc1ccc(-c2ccccc2)cc1
II: Cc1ccc(-c2nnc(SCCCC(=O)Nc3ccc(C45CC6CC(CC(C6)C4)C5)cc3)o2)cc1
Problem: Of the pair I and II , name the member with the lesser recorded inhibition at 5 µM. Kindly state the label of the option you pick.
Solution: I

* * *

# STUDY_SYSTEM: TEAD2 (Homo sapiens)
# Construct: The cDNA encoding human TEAD2 (residues 217-447, TEAD2^217-447) was cloned into a pET29 vector; made in house; host or cells: E. coli BL21(DE3)-T1R
# MEASUREMENT_DESCRIPTION: In vitro palmitoylation assay to measure potency of TEAD palmitoylation inhibitors (Example 11)
# Assay type: biochemical
# CONDITION_SUMMARY: compound at 5 μM, 3 μM alkyne palmitoyl-CoA, normalized to DMSO control
QUANTITY_KIND: inhibition at 5 µM (%)

Below are worked cases with known answers.
O=C(CCCSc1nnc[nH]1)Nc1ccc(C23CC4CC(CC(C4)C2)C3)cc1    100
CCOc1ccc2nc(SCCC(=O)Nc3ccc(C45CC6CC(CC(C6)C4)C5)cc3)sc2c1    47
O=C(CNc1nnc[nH]1)Nc1ccc(C23CC4CC(CC(C4)C2)C3)cc1    45
CC(C)(C)c1ccc(-c2ccc(NC(=O)CSc3nnc[nH]3)cc2)cc1    100
O=C(CSc1nnc[nH]1)Nc1ccc(-c2cc(-c3cccnc3)cc(-c3cccnc3)c2)cc1    95
O=C(CSc1nnc[nH]1)Nc1ccc(-c2cc(-c3ccccc3)cc(-c3ccccc3)c2)cc1    68
O=C(CSc1nnc[nH]1)Nc1ccc(-c2cc(-c3ccccc3)cc(C(F)(F)F)c2)cc1    90
O=C(CSc1nnc[nH]1)Nc1ccc(C23CC4CC(CC(C4)C2)C3)cc1 [drawing 23]    85
CCCc1ccc(-c2ccc(NC(=O)CSc3nnc[nH]3)cc2)cc1    97
O=C(CSc1nnc[nH]1)Nc1ccc(-c2ccccc2)cc1Br    89

A: CC(C)c1ccc(NC(=O)CSc2nnc[nH]2)cc1
B: Cc1nnc(SCC(=O)Nc2ccc(C34CC5CC(CC(C5)C3)C4)cc2)o1
C: Cc1ccc(-c2nnc(SCC(=O)Nc3ccc(C45CC6CC(CC(C6)C4)C5)cc3)o2)cc1
D: Cn1cnnc1SCC(=O)Nc1ccc(C23CC4CC(CC(C4)C2)C3)cc1
Problem: Thanks in advance: please rank these 4 entries by inhibition at 5 µM, highest to lowest. # list labels per requested ordering
Solution: B, C, A, D
(B: 76%, C: 53%, A: 24%, D: 10%)
